Record form. Attribute: hCD71:HSA. Fill in for each entry.
- measured-on: T1, human CD71 extracellular domain (human, UniProt P02786 89-760)
- T1 construct: also called hCD71; human CD71-ECD
- test: primary ELISA, signal ratio to HSA

Challenge: Suppose we examine the binder CD71-binding FN3 domain of SEQ ID NO: 125 (designed binder) MSLPAPKNLVVSRVTEDSARLSWTAPDAAFDSFYIAYAEPRPDGEAIILLVPGSERSYDLTGLKPGTEYSVLIHGVKGGLLSSPLHAHFTT ; what hCD71:HSA value has been reported?
Response given: 109

Challenge: How about this binder: CD71-binding FN3 domain of SEQ ID NO: 153 (designed binder) MSLPAPKNLVVSRVTEDSARLSWTAPDAAFDSFYIAYAEPRPDGEAIVLAVPGSERSYDLTGLKPGTEYSVLIHGVKGGLLSSPLGADFTT
Response given: 141

Challenge: Next record, please: CD71-binding FN3 domain of SEQ ID NO: 172 (designed binder) MSRPAPKNLVVSRVTEDSARLSWTAPGAAFDSFEIAYFERTWFGEAIVLTVPSSERSYDLTGLKPGTEYWVQIGGVKGGDWSKPLSAIFTT
Response given: 31

Challenge: Record: CD71-binding FN3 domain of SEQ ID NO: 119 (designed binder) MSLPAPKNLVVSRVTEDSARLSWTAPDAAFDSFFIGYLEPQPPGEAIELYVPGSERSYDLTGLKPGTEYNVTIQGVKGGFPSDPLVAFFTT
Response given: 441
